FYI, the data here is from PubChem BioAssay.

- procedure.text: inhibitors of E-selectin induction by TNFa, primary screen, imaging, HUVEC, immunofluorescence, MLSMR starter and 10KST1 sets (AID 487);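 note: signal is fraction of cell area covered by stained E-selectin grains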
- particulars: HUVEC TNFalpha-induced E-selectin immunofluorescence imaging, at 2 µM; active compounds read high
Where a SMILES comes first, the peptide text is derived from it. The star is where a group is joined. Boc = CC(C)(C)OC(=O)*
Please respond with reported inhibition for every item in the list.
Field: numeric (%). Do not append units.

The value of inhibition measured for the compound Cc1nc2ccccc2c2oc(C(=O)NCCN3CCCCC3C)cc12 (stereo unspecified) turned out to be -1.3

The value of inhibition measured for the compound `CC(C)N(C(=O)CSc1nnc(NC(=O)C2CCC2)s1)C(C)C` turned out to be -108

The value of inhibition measured for the compound COc1cccc(NC(=O)C2C3C=CC4(O3)C2C(=O)N(C(C)C)C4C(=O)NC2CCCCC2C)c1 (stereo unspecified) turned out to be -98.5

The value of inhibition measured for the compound `Cc1cc(=O)oc(C)c1C(=O)NCC(C)C` turned out to be -11.5

The value of inhibition measured for the compound `O=C(O)CCc1nn2cc(-c3ccccc3)nc2[nH]c1=O` turned out to be -147

The value of inhibition measured for the compound `CCCCOCCCNC(=O)c1ccc(NC(C)=O)cc1` turned out to be 8.8

The value of inhibition measured for the compound C#CC1CN(Cc2ccccc2)CC(C#C)N1C (stereo unspecified) turned out to be 9

The value of inhibition measured for the compound `CCn1c(C(=O)N2CCC(C(=O)NCc3ccc4c(c3)OCO4)CC2)cc2sccc21` turned out to be -65.2

The value of inhibition measured for the compound Cc1c(Cl)cccc1N1C(=O)C2ON(c3ccccc3)C(c3cccnc3)C2C1=O (stereo unspecified) turned out to be 9.6

The value of inhibition measured for the compound `O=C(CCn1c(=O)sc2ccccc21)Nc1nccs1` turned out to be -53

The value of inhibition measured for the compound CCOC(=O)C(CC)n1nc(C)n2c(cc3sccc32)c1=O (stereo unspecified) turned out to be -25.8

The value of inhibition measured for the compound `CCOC(=O)c1c(C)[nH]c(C(=O)Cn2c(=O)c3c(ncn3CC)n(Cc3ccccc3)c2=O)c1C` turned out to be -32.2

The value of inhibition measured for the compound CSCCC(NC(=O)OC(C)(C)C)C(=O)NC(CC(C)C)C(N)=O (stereo not drawn) (Boc-Met-Leu-NH2; configuration not given here) turned out to be 7.9

The value of inhibition measured for the compound CC(=O)Nc1ccc(OCC(O)CN2CCN(c3cccc(Cl)c3)CC2)cc1 (stereo unspecified) turned out to be -27.1

The value of inhibition measured for the compound `CC1(C)Cc2c(C#N)c(N3CCN(C(=O)c4ccco4)CC3)nc(Cc3ccccc3)c2CO1` turned out to be 2.1

The value of inhibition measured for the compound `CCOc1ccccc1NC(=O)CCSc1nc2n[nH]c(C)c2c(=N)n1-c1ccccc1Cl` turned out to be 30.1

The value of inhibition measured for the compound `C=CCn1c(SCn2nnc3ccccc3c2=O)nnc1-c1ccc(Br)cc1` turned out to be -30.7

The value of inhibition measured for the compound O=C(Nc1ccc2c(c1)OCO2)C(c1ccc(Cl)cc1)N1CCN(C(=O)c2ccco2)CC1 (stereo unspecified) turned out to be -43.9

The value of inhibition measured for the compound `CCCn1c(-c2ccc(F)cc2)cnc1SCC(=O)O` turned out to be -63.4

The value of inhibition measured for the compound `COc1ccc(-c2nc(CSCC(=O)N3CCc4ccccc4C3)c(C)o2)cc1OC` turned out to be 5.9

The value of inhibition measured for the compound Cc1cc(=O)oc(C)c1C(=O)NCC(C)NC(=O)c1c(C)cc(=O)oc1C (stereo unspecified) turned out to be 32.8
